study target: T1, GST-PHD1 (S287-K347) of KDM5A (human, UniProt P29375 287-347)
T1 chain: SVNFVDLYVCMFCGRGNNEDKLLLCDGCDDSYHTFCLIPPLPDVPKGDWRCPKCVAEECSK
protocol notes: FP; H3R2me2a (asymmetric dimethyl)
Where no end group is shown, it is not given here.

| binder | Kd / µM |
| --- | --- |
| ARTKQTARKS (also: methylated Arg2, degree of methylation not given here) [H3 10mer peptide methylated at R2] | 5.41 |

src = paper PMC6327041
